Cited source: the supplement of paper PMC10567573

B1: IMPA1 (parent)
chain: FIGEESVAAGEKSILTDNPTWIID

Variants of: B1
procedure.summary: protein stability index of a GFP-peptide fusion (GPS, HEK-293T) (PSI 1-6); higher = more stable;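 further: lentivirally expressed fusions sorted by FACS into six bins by GFP to DsRed ratio, PSI derived from sequencing read proportions per bin multiplied by bin number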
particulars: c terminus: a fixed tail appended
Recorded protein stability index for the following variants

mutant.designation	protein stability index
N18P	3.14
I2K	4.42
S13C	2.27
T20H	2.67
G10Y	1.85
E4T	1.85
I2G	4.24
A8L	2.08
N18W	2.1
I22T	1.68
W21P	4.67
E11Q	1.98
T16A	2.35
P19E	3.51
V7D	2.71
F1H	4.56
F1L	4.34
I22P	3.76
E11R	1.49
E4F	3.31
S6T	2.23
S6Y	1.51
